Origin of the recorded values: patent US20060111305A1

- PROCEDURE SUMMARY: Concentrations of DCDQ and DCDQ carbamoyl glucuronide (M6) in human plasma, LC/SRM (Table 34)
- Type: in vivo, healthy human subjects
- RECORDED CONDITIONS: human, plasma, oral, 200 mg, plasma, 200 mg (fasted), 12 hr, Mean ± S.D.; read-out: M6 concentration in plasma
- Procedure: Drug administration and specimen collection were performed in a randomized, double-blinded, placebo-controlled, ascending single dose study of the safety, tolerability, pharmacokinetics, and pharmacodynamics of DCDQ administered orally to healthy subjects and subjects with schizophrenia and schizoaffective disorder. […] LC/MS System 3 was used for semi-quantitative analysis of metabolite M6 (DCDQ carbamoyl glucuronide) in plasma and urine samples. […]
MEASURE NAME: concentration at 12 h

{"columns": ["COMPOUND", "MEASURE NAME", "RESULT"],
 "data": [
  ["O=C(O)[C@H]1O[C@@H](OC(=O)N2CCN3C[C@@H]4CCC[C@@H]4c4cccc(c43)C2)[C@H](O)[C@@H](O)[C@@H]1O [Metabolite M6, carbamoyl glucuronide of DCDQ]", "concentration at 12 h", "43.6 ng/mL"]
]}

###

Here the recorded Chromatographic distribution of radioactivity in dog plasma is given for each entry.
- PROCEDURE SUMMARY: Dog plasma metabolite profiles after single 15 mg/kg oral capsule of [14C]DCDQ
- Type: in vivo, beagle dogs
- RECORDED CONDITIONS: 8 hr, dog 1
- Description: For plasma profiles, a TopCount NXT radiometric microplate reader (Perkin Elmer) was used to analyze the radioactivity in collected HPLC fractions. The limit of detection by TopCount was about 1 ng equivalent/mL. A Flo-One β Model A525 radioactivity detector (Perkin Elmer) with a 250 μL LQTR flow cell was used to acquire data for urine and fecal samples. […] Plasma samples were analyzed for metabolite profiles by HPLC. […] The plates were dried overnight in an oven at 40° C. and analyzed by a TopCount. […]
MEASURE NAME: Chromatographic distribution of radioactivity in dog plasma (%)

{"columns": ["MOLECULE", "NUMERIC RESULT"],
 "data": [
  ["c1cc2c3c(c1)[C@H]1CCC[C@H]1CN3CCNC2 [DCDQ, reference compound]", 2.7],
  ["OC1CN2C[C@@H]3CCC[C@@H]3c3cccc(c32)CN1 (stereo partly shown) [Metabolite M1, hydroxy DCDQ]", 8.0],
  ["O=C(O)[C@H]1O[C@@H](OC(=O)N2CCN3C[C@@H]4CCC[C@@H]4c4cccc(c43)C2)[C@H](O)[C@@H](O)[C@@H]1O [Metabolite M6, carbamoyl glucuronide of DCDQ]", 7.0],
  ["[O-][N+]12CCN=Cc3cccc(c31)[C@H]1CCC[C@H]1C2 (stereo partly shown) [Metabolite M5, DCDQ imine N-oxide]", 4.0]
]}

###

- PROCEDURE SUMMARY: Rat plasma metabolite profiles after single oral 5 mg/kg [14C]DCDQ
- Format: in vivo, Sprague-Dawley rats
- RECORDED CONDITIONS: female, 2 hr, mean n = 3
Structures can show the parent of a compound that is named as a salt.
MEASURE NAME: Chromatographic distribution of radioactivity in rat plasma (%)

{"columns": ["COMPOUND", "NUMERIC RESULT"],
 "data": [
  ["OC1CNCc2cccc3c2N1C[C@@H]1CCC[C@H]31 (stereo partly drawn) [Metabolite M10, hydroxy DCDQ]", 5.2],
  ["c1cc2c3c(c1)[C@H]1CCC[C@H]1CN3CCNC2 [DCDQ, reference compound]", 20],
  ["O=S(=O)(O)OC1CC[C@@H]2c3cccc4c3N(CCNC4)CC12 (stereo partly drawn) [Metabolite M13, 17-hydroxy DCDQ sulfate]", 2.6],
  ["CC(=O)N1Cc2cccc3c2N(C[C@@H]2CCC[C@H]32)C(O)C1 (stereo partly drawn) [Metabolite M11, acetylated hydroxy DCDQ]", 6.1]
]}
